- procedure_details: chemical genetic growth profiling, strain panel (AID 1159580);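 note: tested at 20 µM; growth read once vehicle control cultures reached saturation at 30 °C; lower values mean less growth of the strain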
- conditions_used: S. cerevisiae deletion strains, growth OD, locus YER111C, strain swi4
In all, about 5,500 compounds went through this assay and about 2,000 (36%) were called active. Not shown: some 18% with an inconclusive outcome. Cut-off read from the data, not from the text of the source: active = normalized growth mostly below about 0.91 (no sharp cut-off); inconclusive = no clear call, values can overlap the other calls; inactive = mostly above about 0.92. The list shows a part of the results.
Labels: active, inactive

compound	label_value
CC(=O)OCC1=C(C(=O)O)N2C(=O)[C@@H](NC(=O)CSc3ccncc3)[C@H]2SC1	inactive
CC[C@H]1OC(=O)[C@H](C)[C@@H](O[C@H]2C[C@@](C)(OC)[C@@H](O)[C@H](C)O2)[C@H](C)[C@@H](O[C@@H]2O[C@H](C)C[C@H](N(C)C)[C@H]2O)[C@](C)(O)C[C@@H](C)/C(=N/OCOCCOC)[C@H](C)[C@@H](O)[C@]1(C)O	inactive
COC1=CC23CCCN2CCc2cc4c(cc2C3C1O)OCO4 (stereo not given)	inactive
CON	inactive
O=C(N[C@@H](CO)[C@H](O)c1ccc([N+](=O)[O-])cc1)C(Cl)Cl	inactive
CO/N=C(/C(=O)NC1C(=O)N2C(C(=O)OCOC(=O)C(C)(C)C)=C(/C=C\c3scnc3C)CSC12)c1csc(N)n1 (stereo not given)	inactive
O=C(CCc1ccc(O)cc1)c1c(O)cc(O)cc1O	inactive
COc1cc(O)c2c(c1)C(=O)c1cc(C)cc(O)c1C2=O	inactive
O=c1c(O)c(-c2ccccc2)oc2cc(O)ccc12	active
CC(=CC1CCC(C)C2CCC(C)=C12)C(=O)O (stereo not given)	inactive

Values were extracted from PubChem BioAssay AID1159580.
